The measured values listed here are drawn from the supplement of paper PMC11780869.

Tested on: Bacillus subtilis
test.summary: cleaved RNA product abundance (RNA/gDNA barcode ratio) relative to median wild-type variant (ratio to wild type); higher = more accumulation of the downstream cleavage product
conditions: experiment (reporter, strain, medium): exp 8a: truncated aprE reporter, strain BJT201 with 2% xylose (RNase J1 expressed); cleavage site: glnRA (positions -5 to +31 mutated)
readout: cleaved RNA product abundance
The answer should be written as a number, with no unit following it.

> print(dat)
                           ordered.residues                        readout  endpoint.value
1  CGACATGTCCCGCTTCTTTCATTAAGCCGTAAGCAACTGTTTTGCTATATACATTTACCTTTTAAGAGGAGGAAT  cleaved RNA product abundance           0.519
2  CGACATGTCCCGCTTCTTTCATTATTCCGATAGCAACTGTTTTGCTATATACATTTACCTTTTAAGAGGAGGAAT  cleaved RNA product abundance           0.898
3  CGACATGTCCCGCTTCTTTCATTAATCCGTTAGCAACTGTTTTGCTCTATACATATACCTTTTAAGAGGAGGAAT  cleaved RNA product abundance           0.176
4  CGACATGTCCCGCTTCTTTCATTAATCCGTTTGCAACTGTTTTGCTATATACATTTAACTTTTAAGAGGAGGAAT  cleaved RNA product abundance           0.827
5  CGACATGTCCCGCTTCTTTCATTAATCCGTTAGCAACTGTTTTGCTATATGCATTTAACTTTTAAGAGGAGGAAT  cleaved RNA product abundance           0.452

Per the record, `CGACATGTCCCGCTTCTTTCATTATTCCGATATCAATTGTTTCGCTATATACATTTACCTTTTAAGAGGAGGAAT` has cleaved RNA product abundance of 0.147

According to the records, this sequence `CGACATGTCCCGCTTCTTTCATTAATCCGTTACCAACTGTTTTGCTATATACATTTCCCTTTTAAGAGGAGGAAT` displays cleaved RNA product abundance of 0.127
